# ratio of KD at pH 5.8/pH 7.4 annotations
Target: T1, Human latent myostatin (human, UniProt O14793 25-266; O14793 267-375)
T1 construct: also called human myostatin latent form
T1 sequence 1: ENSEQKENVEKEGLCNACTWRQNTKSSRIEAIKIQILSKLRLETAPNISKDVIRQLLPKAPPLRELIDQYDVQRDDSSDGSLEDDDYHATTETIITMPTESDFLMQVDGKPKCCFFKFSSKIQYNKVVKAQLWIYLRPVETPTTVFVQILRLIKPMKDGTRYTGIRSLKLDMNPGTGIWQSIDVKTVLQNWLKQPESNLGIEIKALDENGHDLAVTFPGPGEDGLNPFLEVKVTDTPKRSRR
T1 sequence 2: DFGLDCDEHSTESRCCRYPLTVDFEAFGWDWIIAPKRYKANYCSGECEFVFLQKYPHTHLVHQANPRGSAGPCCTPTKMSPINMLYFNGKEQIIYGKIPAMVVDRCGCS
Test: SPR 37C; KD pH 5.8 / KD pH 7.4
Reply briefly: the number, and no unit.

Past entries and their recorded results:
| Binder | Recorded Metric | Quantitative Readout |
| --- | --- | --- |
| MS_M103240H1246-SG1/M103202L1045-SK1 (antibody, human IgG1, kappa, V domains shown, also called MS1032LO25-SG1) VH: QVQLVESGGGLVQPGGSLRLSCAVSGIDLSHEDISWVRQAPGKGLEWVSIISYAGSKYYASWAKGRLTISKDTSKNQVVLTMTNMDPVDTATYYCARGVPAYSHGGDLWGQGTLVTVSS VL: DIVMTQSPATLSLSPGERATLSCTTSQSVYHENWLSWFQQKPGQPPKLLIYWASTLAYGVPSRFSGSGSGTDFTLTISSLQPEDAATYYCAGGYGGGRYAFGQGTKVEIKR | ratio of KD at pH 5.8/pH 7.4 | 92 |
| MS_M103205H1004-SG1/M103202L889-SK1 (antibody, human IgG1, kappa, V domains shown, also called MS1032LO07-SG1) VH: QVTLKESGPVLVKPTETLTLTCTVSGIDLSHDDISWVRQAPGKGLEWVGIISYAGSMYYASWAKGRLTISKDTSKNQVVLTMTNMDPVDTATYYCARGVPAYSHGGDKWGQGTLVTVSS VL: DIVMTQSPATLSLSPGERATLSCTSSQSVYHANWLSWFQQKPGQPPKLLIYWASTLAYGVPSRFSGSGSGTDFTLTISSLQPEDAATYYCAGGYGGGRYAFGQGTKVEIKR | ratio of KD at pH 5.8/pH 7.4 | 168 |

Given the binder MS_M103205H1795-SG1/M103202L1060-SK1 (antibody, human IgG1, kappa, V domains shown, also called MS1032LO24-SG1) VH: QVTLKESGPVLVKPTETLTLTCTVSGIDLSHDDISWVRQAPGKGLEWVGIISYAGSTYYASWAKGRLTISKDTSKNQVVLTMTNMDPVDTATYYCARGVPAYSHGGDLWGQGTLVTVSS VL: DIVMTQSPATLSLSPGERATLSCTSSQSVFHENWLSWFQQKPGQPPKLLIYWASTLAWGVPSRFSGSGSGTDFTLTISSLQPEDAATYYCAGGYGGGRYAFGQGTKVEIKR , write its reported ratio of KD at pH 5.8/pH 7.4. 9

Source: patent US20200317768A1
